- target-of-assay: ABHD6 (Mus musculus)
- test-protocol: In vitro competitive activity-based protein profiling (Table 2, % inhibition at 1 μM)
- Assay type: biochemical
- test-conditions: read-out: % Inhibition at 1 μM ABHD6

{"compound": "Cc1c(CN2CC3CN(C(=O)OC(C(F)(F)F)C(F)(F)F)CC3C2)cccc1N1CCC2(CCOC2)C1 (stereo not shown)", "inhibition at 1 µM": "< 25%"}
{"compound": "O=C(ON1C(=O)CCC1=O)N1CC2CN(Cc3cccc(Cl)c3N3CCC(F)CC3)CC2C1 (stereo not shown)", "inhibition at 1 µM": "25 to 75%"}
{"compound": "O=C(ON1C(=O)CCC1=O)N1CC2CN(Cc3ccc(C(=O)N4CCCC4)cc3Cl)CC2C1 (stereo not shown)", "inhibition at 1 µM": "25 to 75%"}
{"compound": "O=C(OC(C(F)(F)F)C(F)(F)F)N1CC2CN(Cc3ccc(Cl)cc3N3CCOCC3)CC2C1 (stereo not shown)", "inhibition at 1 µM": "25 to 75%"}

---

Measured inhibition at 1 µM values are reported for all entries that follow.
- target-of-assay: ABHD6 (Mus musculus, UniProt Q8R2Y0)
- Sequence (Q8R2Y0 whole entry): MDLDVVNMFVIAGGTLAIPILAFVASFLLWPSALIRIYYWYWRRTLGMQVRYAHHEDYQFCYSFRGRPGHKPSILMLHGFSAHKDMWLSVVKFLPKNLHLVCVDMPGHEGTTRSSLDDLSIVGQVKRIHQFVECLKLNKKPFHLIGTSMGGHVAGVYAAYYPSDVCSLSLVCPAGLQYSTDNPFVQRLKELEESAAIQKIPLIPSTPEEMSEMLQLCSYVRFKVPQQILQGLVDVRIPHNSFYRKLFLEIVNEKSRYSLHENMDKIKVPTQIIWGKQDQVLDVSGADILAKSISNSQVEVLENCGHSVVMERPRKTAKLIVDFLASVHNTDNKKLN
- test-protocol: In vitro competitive activity-based protein profiling (Table 2, % inhibition at 1 μM)
- Type: biochemical
- test-conditions: read-out: % Inhibition at 1 μM ABHD6
quantity: inhibition at 1 µM

{"compound": "CC(=O)N1CCC(c2nn(C(C)C)cc2CN2CC3CN(C(=O)ON4C(=O)CCC4=O)CC3C2)CC1 (stereo not drawn)", "result": "< 25%"}
{"compound": "O=C(OC(C(F)(F)F)C(F)(F)F)N1CC2CN(Cc3cccc(Cl)c3N3CCC(F)(F)CC3)CC2C1 (stereo not drawn)", "result": "< 25%"}
{"compound": "O=C(ON1C(=O)CCC1=O)N1CC2CN(Cc3cccc(-c4ccccc4)c3)CC2C1 (stereo not drawn)", "result": "25 to 75%"}
{"compound": "CC1COCCN1c1ccc(CN2CC3CN(C(=O)OC(C(F)(F)F)C(F)(F)F)CC3C2)c(F)c1 (stereo not drawn)", "result": "25 to 75%"}
{"compound": "O=C(ON1C(=O)CCC1=O)N1CC2CN(Cc3ccc(F)cc3N3CCOCC3)CC2C1 (stereo not drawn)", "result": "< 25%"}
{"compound": "O=C(OC(C(F)(F)F)C(F)(F)F)N1CC2CN(Cc3cc(CN4CCCCC4)cc(OC(F)(F)F)c3)CC2C1 (stereo not drawn)", "result": "< 25%"}
{"compound": "Cc1c(CN2CC3CN(C(=O)ON4C(=O)CCC4=O)CC3C2)cccc1N1CCC(NS(C)(=O)=O)CC1 (stereo not drawn)", "result": "< 25%"}
{"compound": "CC(=O)NC1CCN(c2cccc(CN3CC4CN(C(=O)ON5C(=O)CCC5=O)CC4C3)c2C)CC1 (stereo not drawn)", "result": "< 25%"}
{"compound": "CC(=O)N1CCC2(CCN(c3ccccc3CN3CC4CN(C(=O)OC(C(F)(F)F)C(F)(F)F)CC4C3)C2)C1 (stereo not drawn)", "result": "< 25%"}
{"compound": "Cn1nc(-c2ccccc2)cc1CN1CC2CN(C(=O)ON3C(=O)CCC3=O)CC2C1 (stereo not drawn)", "result": "< 25%"}
{"compound": "O=C(OC(C(F)(F)F)C(F)(F)F)N1CC2CN(Cc3ccc(N4CCOCC4)cc3OC(F)(F)F)CC2C1 (stereo not drawn)", "result": "< 25%"}
{"compound": "O=C(OC(C(F)(F)F)C(F)(F)F)N1CC2CN(Cc3cccc(N4CCOCC4)c3C(F)(F)F)CC2C1 (stereo not drawn)", "result": "< 25%"}
{"compound": "Cc1c(CN2CC3CN(C(=O)OC(C(F)(F)F)C(F)(F)F)CC3C2)cccc1N1CCN(S(C)(=O)=O)CC1 (stereo not drawn)", "result": "< 25%"}
{"compound": "O=C(OC(C(F)(F)F)C(F)(F)F)N1CC2CN(Cc3ccc(C(=O)N4CCCC4)c(OC(F)(F)F)c3)CC2C1 (stereo not drawn)", "result": "25 to 75%"}
{"compound": "O=C(ON1C(=O)CCC1=O)N1CC2CN(Cc3ccc(Cl)cc3N3CC4CCC(C3)O4)CC2C1 (stereo not drawn)", "result": "25 to 75%"}
{"compound": "CS(=O)(=O)N1CC2(CCN(c3ccccc3CN3CC4CN(C(=O)OC(C(F)(F)F)C(F)(F)F)CC4C3)C2)C1 (stereo not drawn)", "result": "< 25%"}
{"compound": "O=C(OC(C(F)(F)F)C(F)(F)F)N1CC2CN(Cc3ccc(Cl)cc3N3CCC3)CC2C1 (stereo not drawn)", "result": "< 25%"}
{"compound": "CC(=O)N1CCC(c2nn(C)cc2CN2CC3CN(C(=O)OC(C(F)(F)F)C(F)(F)F)CC3C2)CC1 (stereo not drawn)", "result": "< 25%"}
{"compound": "CCn1cc(CN2CC3CN(C(=O)OC(C(F)(F)F)C(F)(F)F)CC3C2)c(C(=O)NC2CC2)n1 (stereo not drawn)", "result": "< 25%"}
{"compound": "O=C(OC(C(F)(F)F)C(F)(F)F)N1CC2CN(Cc3ccc(Cl)cc3N3CC4COCC4C3)CC2C1 (stereo not drawn)", "result": "< 25%"}
{"compound": "O=C(ON1C(=O)CCC1=O)N1CC2CN(Cc3ccc(Cl)cc3N3CCC3)CC2C1 (stereo not drawn)", "result": "25 to 75%"}
{"compound": "CNC(=O)C(OC(=O)N1CC2CN(Cc3ccc(-c4ccccc4)cc3)CC2C1)C(F)(F)F (stereo not drawn)", "result": "< 25%"}
{"compound": "CCn1cc(CN2CC3CN(C(=O)OC(C(F)(F)F)C(F)(F)F)CC3C2)c(-c2ccc(N3CCOCC3)cc2)n1 (stereo not drawn)", "result": "< 25%"}
{"compound": "O=C(ON1C(=O)CCC1=O)N1CC2CN(Cc3ccc(Cl)cc3N3CCC4(CCOCC4)C3)CC2C1 (stereo not drawn)", "result": "< 25%"}
{"compound": "O=C(OC(C(F)(F)F)C(F)(F)F)N1CC2CN(Cc3ccc(C(=O)N4CCOCC4)c(OC(F)(F)F)c3)CC2C1 (stereo not drawn)", "result": "< 25%"}
{"compound": "CCn1ncc(CN2CC3CN(C(=O)OC(C(F)(F)F)C(F)(F)F)CC3C2)c1C(=O)NC1CC1 (stereo not drawn)", "result": "25 to 75%"}
{"compound": "O=C(OC(C(F)(F)F)C(F)(F)F)N1CC2CN(Cc3cccc(N4CCOCC4)c3Cl)CC2C1 (stereo not drawn)", "result": "< 25%"}
{"compound": "O=C(OC(C(F)(F)F)C(F)(F)F)N1CC2CN(Cc3ccc(Cl)cc3N3CCC(C(=O)N4CCCC4)CC3)CC2C1 (stereo not drawn)", "result": "< 25%"}
{"compound": "Cn1nc(-c2ccccc2)cc1CN1CC2CN(C(=O)OC(C(F)(F)F)C(F)(F)F)CC2C1 (stereo not drawn)", "result": "< 25%"}
{"compound": "CCN1CCN(c2cccc(CN3CC4CN(C(=O)ON5C(=O)CCC5=O)CC4C3)c2C)CC1 (stereo not drawn)", "result": "< 25%"}

---

Measured IC50 values are reported for all entries that follow.
- target-of-assay: ABHD6 (Mus musculus)
- test-protocol: biochemical
- test-conditions: in vitro competitive ABPP
quantity: IC50

{"compound": "Cn1cc(CN2CC3CN(C(=O)OC(C(F)(F)F)C(F)(F)F)CC3C2)c(-c2ccccc2)n1 (stereo not drawn)", "target-of-assay": "ABHD6 (Mus musculus)", "result": "1000 to 10000 nM"}
{"compound": "O=C(OC(C(F)(F)F)C(F)(F)F)N1CC2CN(Cc3ccccc3-c3ccccc3)CC2C1 (stereo not drawn)", "target-of-assay": "ABHD6 (Mus musculus)", "result": "> 10000 nM"}
{"compound": "CCn1ncc(CN2CC3CN(C(=O)OC(C(F)(F)F)C(F)(F)F)CC3C2)c1C(=O)NC1CC1 (stereo not drawn)", "target-of-assay": "ABHD6 (Mus musculus)", "result": "100 to 1000 nM"}
{"compound": "O=C(OC(C(F)(F)F)C(F)(F)F)N1CC2CN(Cc3ccc(C(F)F)cc3N3CCCC3)CC2C1 (stereo not drawn)", "target-of-assay": "ABHD6 (Mus musculus)", "result": "1000 to 10000 nM"}
{"compound": "Cn1nc(-c2cccc(F)c2)cc1CN1CC2CN(C(=O)OC(C(F)(F)F)C(F)(F)F)CC2C1 (stereo not drawn)", "target-of-assay": "ABHD6 (Mus musculus)", "result": "100 to 1000 nM"}
{"compound": "CS(=O)(=O)NC1CCN(c2ccc(Cl)cc2CN2CC3CN(C(=O)OC(C(F)(F)F)C(F)(F)F)CC3C2)CC1 (stereo not drawn)", "target-of-assay": "ABHD6 (Mus musculus)", "result": "1000 to 10000 nM"}
{"compound": "O=C(OC(C(F)(F)F)C(F)(F)F)N1CC2CN(Cc3ccc(N4CCCC4)cc3C(F)F)CC2C1 (stereo not drawn)", "target-of-assay": "ABHD6 (Mus musculus)", "result": "1000 to 10000 nM"}
{"compound": "CC(=O)N1CCN(c2ccc(CN3CC4CN(C(=O)OC(C(F)(F)F)C(F)(F)F)CC4C3)c(F)c2)CC1 (stereo not drawn)", "target-of-assay": "ABHD6 (Mus musculus)", "result": "1000 to 10000 nM"}
{"compound": "O=C(OC(C(F)(F)F)C(F)(F)F)N1CC2CN(Cc3ccc(Cl)cc3N3CCC3)CC2C1 (stereo not drawn)", "target-of-assay": "ABHD6 (Mus musculus)", "result": "1000 to 10000 nM"}
{"compound": "CC(C)c1ccc(CN2CC3CN(C(=O)OC(C(F)(F)F)C(F)(F)F)CC3C2)c(N2CCCC2)c1 (stereo not drawn)", "target-of-assay": "ABHD6 (Mus musculus)", "result": "1000 to 10000 nM"}
{"compound": "CCN1CCN(c2cccc(CN3CC4CN(C(=O)OC(C(F)(F)F)C(F)(F)F)CC4C3)c2C)CC1 (stereo not drawn)", "target-of-assay": "ABHD6 (Mus musculus)", "result": "1000 to 10000 nM"}
{"compound": "CCn1cc(CN2CC3CN(C(=O)OC(C(F)(F)F)C(F)(F)F)CC3C2)c(-c2ccc(N3CCCCC3)cc2)n1 (stereo not drawn)", "target-of-assay": "ABHD6 (Mus musculus)", "result": "1000 to 10000 nM"}
{"compound": "CCn1ncc(CN2CC3CN(C(=O)OC(C(F)(F)F)C(F)(F)F)CC3C2)c1C(=O)NCC1CCOCC1 (stereo not drawn)", "target-of-assay": "ABHD6 (Mus musculus)", "result": "100 to 1000 nM"}
{"compound": "Cc1c(CN2CC3CN(C(=O)OC(C(F)(F)F)C(F)(F)F)CC3C2)cccc1N1CCN(S(C)(=O)=O)CC1 (stereo not drawn)", "target-of-assay": "ABHD6 (Mus musculus)", "result": "1000 to 10000 nM"}
{"compound": "Cc1c(CN2CC3CN(C(=O)OC(C(F)(F)F)C(F)(F)F)CC3C2)cccc1N1C2CCC1COC2 (stereo not drawn)", "target-of-assay": "ABHD6 (Mus musculus)", "result": "1000 to 10000 nM"}
